# assay_notes: Toxicity to KHYG-1 NK cells (Trypan blue exclusion)
# Type: cell-based, human
# run_conditions: human, KHYG-1 NK cells; 5 μM, viability after 24 h
# Method: The toxicity assay was carried out in exactly the same manner as the killing assay above, but instead of adding the labeled K562 target cells, 100 μL of RPMI 0.1% BSA was added. Cells were incubated for 4 h at 37 °C and then washed ×3 in RPMI + 0.1% BSA. […] Trypan blue was added to each well. Viable (clear) cells and total (clear + blue) cells were counted, and the percentage of viable cells was calculated compared to DMSO treated cell control (% viability).
outcome_measure: viability at 4 h, 5 µM (%)
Write the number in % without appending the unit.

State its viability at 4 h, 5 µM for this compound: `O=C1NC(=S)N/C1=C/c1ccc(-c2ccc3c(c2)CCNC3=O)s1`
82

---

# assay_target: purified recombinant perforin (Mus musculus, UniProt P10820)
# assay_notes: cell-based
# run_conditions: lysis of Jurkat cells by purified recombinant perforin, 51Cr release, 0.1% BSA; average of at least three determinations; read-out: inhibition of Jurkat cell lysis, IC50
# note: boundary value 3 µM maps to f; IC50 below it maps to t

compound: NC(=O)c1cccc(-c2ccc(/C=C3/NC(=S)NC3=O)s2)c1
class_name: t

For the next question, use this compound.
Given the entry `O=C1NC(=S)N/C1=C/c1ccc(-c2ccc3c(c2)CNC3=O)cn1` , would its reported IC50 be below 3 µM?
t

---

Reported solubility values follow for various compounds
# assay_notes: Solubility in SPR running buffer
# Type: physicochemical
# run_conditions: HEPES buffered saline running buffer with 5% DMSO; sodium salts, HEPES running buffer containing 5% DMSO

compound: CC1c2cc(-c3ccc(/C=C4/NC(=S)NC4=O)s3)ccc2C(=O)N1C (centres unmarked)
solubility: ≤ 2.5 µM

Next, consider the following compound.
State its solubility for this compound: `O=C1NC(=S)N/C1=C/c1ccc(-c2ccc3c(c2)CCNC3=O)s1`
≤ 2.5 µM

---

# assay_notes: Toxicity to KHYG-1 NK cells (Trypan blue exclusion)
# Assay type: cell-based, human
# run_conditions: human; 20 μM, 4 h exposure, viability after 24 h, Trypan blue, ± SEM
# Description: The toxicity assay was carried out in exactly the same manner as the killing assay above, but instead of adding the labeled K562 target cells, 100 μL of RPMI 0.1% BSA was added. Cells were incubated for 4 h at 37 °C and then washed ×3 in RPMI + 0.1% BSA. […] Trypan blue was added to each well. Viable (clear) cells and total (clear + blue) cells were counted, and the percentage of viable cells was calculated compared to DMSO treated cell control (% viability).
outcome_measure: viability at 4 h, 20 µM (%)
Write the number in % without appending the unit.

State its viability at 4 h, 20 µM for this molecule: `O=C1NC(=S)N/C1=C/c1ccc(-c2ccc3c(c2)CCNC3=O)s1`
38

---

# assay_target: purified recombinant perforin (Mus musculus, UniProt P10820)
# Sequence (P10820 21-554): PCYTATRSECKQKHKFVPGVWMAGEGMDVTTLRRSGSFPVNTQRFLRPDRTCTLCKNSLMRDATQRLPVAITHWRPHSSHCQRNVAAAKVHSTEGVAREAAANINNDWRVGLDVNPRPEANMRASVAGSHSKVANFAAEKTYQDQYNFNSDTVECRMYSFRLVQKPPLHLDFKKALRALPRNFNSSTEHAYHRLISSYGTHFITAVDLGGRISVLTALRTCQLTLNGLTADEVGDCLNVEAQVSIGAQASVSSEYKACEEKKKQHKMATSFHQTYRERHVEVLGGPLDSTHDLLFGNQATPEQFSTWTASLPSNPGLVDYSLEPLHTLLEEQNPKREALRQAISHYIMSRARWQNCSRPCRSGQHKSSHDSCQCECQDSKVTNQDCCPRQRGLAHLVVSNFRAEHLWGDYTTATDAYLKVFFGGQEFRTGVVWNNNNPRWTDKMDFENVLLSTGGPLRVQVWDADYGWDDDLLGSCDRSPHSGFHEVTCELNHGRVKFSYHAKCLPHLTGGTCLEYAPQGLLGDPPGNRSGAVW
# assay_notes: cell-based
# run_conditions: lysis of Jurkat cells by purified recombinant perforin, 51Cr release, 0.1% BSA; average of at least three determinations; read-out: inhibition of Jurkat cell lysis, IC50
outcome_measure: IC50 (nM)
Write the number in nM without appending the unit.

compound: CN1Cc2ccc(-c3ccc(/C=C4/NC(=S)NC4=O)s3)cc2C1=O [compound 166]
IC50 (nM): 1890
//
compound: CCCN1Cc2cc(-c3ccc(/C=C4/NC(=S)NC4=O)s3)ccc2C1=O [compound 121]
IC50 (nM): 1520
//
compound: COC(=O)c1ccc(-c2ccc(/C=C3/NC(=S)NC3=O)s2)cc1 [compound 59]
IC50 (nM): 1620

State its IC50 for this compound: O=C1NC(=S)N/C1=C/c1ccc(-c2ccc3c(c2)C(=O)NC3)s1 [compound 165]
1380

State its IC50 for this compound: O=C1NC(=S)N/C1=C/c1ccc(-c2ccc3c(c2)C(=O)NCC3)s1 [compound 168]
640

State its IC50 for this compound: CC(=O)c1cn(C)c2ccc(-c3ccc(/C=C4\NC(=S)NC4=O)s3)cc12 [compound 178]
5300

State its IC50 for this compound: O=C1NC(=S)N/C1=C/c1ccc(-c2cccc(Cl)c2)s1 [compound 45]
7190

State its IC50 for this compound: O=C1NC(=S)N/C1=C/c1ccc(-c2ccc3c(c2)CN(CCCO)C3=O)s1 [compound 126]
530

State its IC50 for this compound: O=C1NC(=S)N/C1=C/c1ccc(-c2ccc(F)cc2)s1 [compound 48]
6690

State its IC50 for this compound: CC(=O)N1Cc2cc(-c3ccc(/C=C4/NC(=S)NC4=O)s3)ccc2C1=O [compound 128]
930

State its IC50 for this compound: O=C1NC(=S)N/C1=C/c1ccc(-c2ccc(C(=O)NCC(O)CO)cc2)s1 (stereo not drawn) [compound 75]
2440

State its IC50 for this compound: O=C1NC(=S)N/C1=C/c1ccc(-c2ccc(Cl)c(C(F)(F)F)c2)s1 [compound 54]
3090

State its IC50 for this compound: O=C1NC(=S)N/C1=C/c1ccc(-c2ccc3c(c2)CCNC3=O)s1 [compound 167]
1140

State its IC50 for this compound: O=C1NC(=S)N/C1=C/c1ccc(-c2ccc(C(=O)NCCCO)cc2)s1 [compound 73]
4350

State its IC50 for this compound: O=C1NC(=S)N/C1=C/c1ccc(-c2cccnc2)s1 [compound 65]
12900
